Recorded values, source PubChem BioAssay (NCATS).

procedure-details: S16 Schwann cell PMP22 intronic element firefly luciferase assay (AID 624032); further: nearly all actives have a fitted effect of over 30% in size; further: potency means the concentration at half of the fitted maximal effect
recorded-conditions: S16 rat Schwann cells, PMP22 element FLuc, 24 h; series mostly up to 57.5 µM
Inconclusive results are not listed. Calls of active or inactive are those of the source. The call rests on the fitted dose curve; in most records, active means well fitted inhibition curve with a large enough effect; inconclusive means small, poorly fitted or top-dose-only effect; inactive means no such curve, though single readings can be large or run the other way.

{"columns": ["compound", "Potency"],
 "data": [
  ["CC(=O)Oc1c(C)cc(OCC(O)CNC(C)C)c(C)c1C (stereo not drawn)", "inactive"],
  ["CC[N+](C)(C)Cc1ccccc1Br", "inactive"],
  ["NC1C2CN(c3nc4c(cc3F)c(=O)c(C(=O)O)cn4-c3ccc(F)cc3F)CC12 (stereo not drawn)", "inactive"],
  ["O=C1CSC2(CCN(CCCN3c4ccccc4Sc4ccc(Cl)cc43)CC2)N1", "32.2 µM (active)"],
  ["CC1=CCC(C(C)(C)O)CC1 (stereo not drawn)", "inactive"],
  ["O=CCCCC=O", "inactive"],
  ["Nc1c(Br)cc(Br)cc1CNC1CCC(O)CC1 (stereo not drawn)", "inactive"],
  ["COC(C(=O)C(O)C(C)O)C1Cc2cc3cc(OC4CC(OC5CC(O)C(O)C(C)O5)C(O)C(C)O4)c(C)c(O)c3c(O)c2C(=O)C1OC1CC(OC2CC(OC3CC(C)(O)C(O)C(C)O3)C(O)C(C)O2)C(O)C(C)O1 (stereo not drawn)", "inactive"],
  ["CCCCC(CC)COC(=O)CC(C(=O)OCC(CC)CCCC)S(=O)(=O)O (stereo not drawn)", "inactive"],
  ["CCCCCCCCCCCCCCCC(=O)OCC(COC(=O)CCCCCCCCCCCCCCC)OC(=O)CCCCCCCCCCCCCCC", "inactive"],
  ["CCCCCCOc1ccc(C(=N)N(CCCC)CCCC)c2ccccc12", "22.8 µM (active)"],
  ["CC(C(=O)O)c1ccc(N2Cc3ccccc3C2=O)cc1 (stereo not drawn)", "inactive"],
  ["NC(=O)c1ncn(C2OC(CO)C(O)C2O)n1 (stereo not drawn)", "inactive"],
  ["O=C(Nc1cccc(C(F)(F)F)c1)c1cc(Br)cc(Br)c1O", "inactive"],
  ["COC(=O)C1=C(C#N)NC(C)=C(C(=O)OC(C)C)C1c1cccc([N+](=O)[O-])c1 (stereo not drawn)", "16.1 µM (active)"],
  ["C[C@H]1C[C@H]2[C@@H]3CCC4=CC(=O)C=C[C@]4(C)[C@@]3(F)[C@@H](O)C[C@]2(C)[C@@]1(O)C(=O)CO", "inactive"],
  ["IC(I)I", "inactive"],
  ["CCCCCCCCCCCCCC[n+]1ccc(C)cc1", "2.56 µM (active)"]
]}
